subject_of_test: KRAS^G12D (Homo sapiens, UniProt P01116, G12D)
Construct: GST-tagged KRAS WT or mutant proteins (amino acids 2-169)
Sequence (P01116 2-169 isoform P01116-2 G12D): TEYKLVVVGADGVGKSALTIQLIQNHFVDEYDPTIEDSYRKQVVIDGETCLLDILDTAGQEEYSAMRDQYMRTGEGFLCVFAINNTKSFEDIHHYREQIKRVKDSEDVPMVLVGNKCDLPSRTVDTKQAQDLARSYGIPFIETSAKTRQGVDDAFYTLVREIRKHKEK
experiment: KRAS nucleotide exchange assay (SOS1-mediated, HTRF)
experimental_setup: KRAS 20 nM, SOS1 12.5 nM, labeled GTP 0.15 µM, 60 min preincubation
Hi! Could you tag entries with IC50 below 6 nM as class 1, and those at or above as class 0? Much appreciated.

compound	category_label
Nc1nc2c(-c3c(Cl)c4c5c(nc(OC[C@@]67CCCN6C[C@H](F)C7)nc5c3F)N3CCNC[C@@H]3CCO4)ccc(F)c2s1 [Example 3]	class 0
C#Cc1c(F)ccc2cc(O)cc(-c3nc4c5c(nc(OC[C@@]67CCCN6C[C@H](F)C7)nc5c3F)N3CCNC[C@@H]3CCO4)c12 [Example 2]	class 1
Oc1cc(Cl)c(C2CC2)c(-c2nc3c4c(nc(OCC56CCCN5CC(F)C6)nc4c2F)N2CCNCC2CCO3)c1 (stereo not drawn) [Example 4]	class 0
CCc1c(F)ccc2cc(O)cc(-c3nc4c5c(nc(OC[C@@]67CCCN6C[C@H](F)C7)nc5c3F)N3CCNC[C@@H]3CC(C)O4)c12 (stereo partly drawn) [Example 5]	class 0
